- TARGET OR TEST SYSTEM: cerebral H1 receptor (Mus musculus, UniProt P70174)
- Construct: the entire brain, except for cerebellum and medulla oblongatae, was rapidly excised; from tissue; host or cells: brain homogenate (without cerebellum and medulla oblongata) of orally dosed ICR male mice
- Sequence (P70174 whole entry): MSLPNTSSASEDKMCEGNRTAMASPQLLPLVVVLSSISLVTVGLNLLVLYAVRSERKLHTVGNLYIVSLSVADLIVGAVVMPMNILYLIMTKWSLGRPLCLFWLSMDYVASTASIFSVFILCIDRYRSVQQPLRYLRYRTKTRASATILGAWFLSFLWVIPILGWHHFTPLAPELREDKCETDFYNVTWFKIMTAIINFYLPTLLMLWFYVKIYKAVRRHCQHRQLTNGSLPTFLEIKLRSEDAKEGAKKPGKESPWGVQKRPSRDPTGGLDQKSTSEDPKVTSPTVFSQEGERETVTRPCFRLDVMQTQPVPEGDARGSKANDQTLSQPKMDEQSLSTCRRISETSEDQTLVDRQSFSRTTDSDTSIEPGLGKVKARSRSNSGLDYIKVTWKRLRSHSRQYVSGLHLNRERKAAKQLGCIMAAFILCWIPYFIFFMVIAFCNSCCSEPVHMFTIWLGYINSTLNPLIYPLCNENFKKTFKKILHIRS
- EXPERIMENTAL DETAILS: Murine cerebral H1 receptor occupying content (ex vivo)
- Type: in vivo
- STUDY CONDITIONS: ICR male mouse, oral administration, brain excised after 1 hour, 3H-pyrilamine binding in brain homogenate; larger = lower brain transfer; read-out: ID50 (the source's name)
ENDPOINT NAME: ED50

As a guide, the following entries are already answered.
query: Annotate the compound CCCOC(=O)Cc1ccc2c(c1)C(=C1CCNCC1)c1sccc1CO2.Cl with its measured ED50.
result: > 200 mg/kg

query: Annotate the compound CCOC(=O)C=Cc1cc2c(s1)CCc1ccccc1C2=C1CCNCC1.Cl with its measured ED50.
result: > 200 mg/kg

---
query: Annotate the compound CC(OC(=O)Cc1ccc2c(c1)C(=C1CCNCC1)c1sccc1CO2)OC(=O)OC1CCCCC1.Cl (stereo not drawn) with its measured ED50.
result: > 200 mg/kg

###

Counter-ions that a name gives are not always drawn.
The following molecules each carry a recorded IC50 for human histamine H1 receptor (Homo sapiens, UniProt P35367).
Answers are plain numbers, in µM.

As a guide, the following entries are already answered.
query: Enter recorded IC50 with human histamine H1 receptor (Homo sapiens, UniProt P35367) for COC(=O)CCc1ccc2c(c1)C(=C1CCN(CCNS(C)(=O)=O)CC1)c1sccc1CO2 [Compound 195, hydrochloride] here.
Sequence (P35367 whole entry): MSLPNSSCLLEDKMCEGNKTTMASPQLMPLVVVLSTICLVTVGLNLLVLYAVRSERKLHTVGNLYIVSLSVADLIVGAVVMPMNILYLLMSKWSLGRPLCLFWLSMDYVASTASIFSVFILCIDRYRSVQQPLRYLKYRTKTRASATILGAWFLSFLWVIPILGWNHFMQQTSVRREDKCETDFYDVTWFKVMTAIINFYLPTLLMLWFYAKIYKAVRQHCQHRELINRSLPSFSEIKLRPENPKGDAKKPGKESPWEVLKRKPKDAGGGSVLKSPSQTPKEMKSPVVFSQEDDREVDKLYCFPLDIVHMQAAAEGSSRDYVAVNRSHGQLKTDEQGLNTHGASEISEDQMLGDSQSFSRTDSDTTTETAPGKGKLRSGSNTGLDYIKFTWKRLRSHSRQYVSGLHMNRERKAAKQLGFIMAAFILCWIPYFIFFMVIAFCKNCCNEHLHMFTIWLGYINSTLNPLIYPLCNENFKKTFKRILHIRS
result: 0.0117

query: Enter recorded IC50 with human histamine H1 receptor (Homo sapiens, UniProt P35367) for COC(=O)Cc1ccc2c(c1)C(=C1CCN(CCSC)CC1)c1sccc1CO2.Cl [Compound 200, hydrochloride] here.
result: 0.00783

query: Enter recorded IC50 with human histamine H1 receptor (Homo sapiens, UniProt P35367) for CCOCCN1CCC(=C2c3ccccc3CCc3sc(C(=O)OCC)cc32)CC1 [Compound 181, hydrochloride] here.
result: 0.013

query: Enter recorded IC50 with human histamine H1 receptor (Homo sapiens, UniProt P35367) for COC(=O)COc1ccc2c(c1)C(=C1CCN(C)CC1)c1sccc1CO2.Cl [Compound 165, hydrochloride] here.
result: 0.0118

---
query: Enter recorded IC50 with human histamine H1 receptor (Homo sapiens, UniProt P35367) for COC(=O)Cc1ccc2c(c1)C(=C1CCN(CCCC(C)=O)CC1)c1sccc1CO2.Cl [Compound 169, hydrochloride] here.
result: 0.00832

###

The following compounds each carry a recorded pIC50 for UniProt:P35367.
Counter-ions that a name gives are not always drawn.
One number for each entry, as −log10 of the molar value.

query: Annotate the compound COC(=O)CCCc1ccc2c(c1)C(=C1CCN(CCCC(C)=O)CC1)c1sccc1CO2 [Compound 187, hydrochloride] with its measured pIC50.
result: 8.06

query: Annotate the compound CN1CCC(=C2c3ccccc3CCc3sc(C(N)=O)cc32)CC1 [Compound 31] with its measured pIC50.
result: 7.79

---
query: Annotate the compound CCOC(=O)Cc1ccc2c(c1)C(=C1CCN(C)CC1)c1sccc1CO2.Cl [Compound 140, hydrochloride] with its measured pIC50.
result: 8.00

###

- TARGET OR TEST SYSTEM: cerebral H1 receptor (Mus musculus, UniProt P70174)
- Construct: the entire brain, except for cerebellum and medulla oblongatae, was rapidly excised; from tissue; host or cells: brain homogenate (without cerebellum and medulla oblongata) of orally dosed ICR male mice
- EXPERIMENTAL DETAILS: Murine cerebral H1 receptor occupying content (ex vivo)
- Assay type: in vivo
- STUDY CONDITIONS: ID50 of cerebral receptor binding test (Table 20) divided by ED50 of vascular hyperpermeability test (Table 19)
ENDPOINT NAME: ID50 (mg/kg)/ ED50 (mg/kg)
Give bare numbers.

As a guide, the following entries are already answered.
query: Annotate the compound CC(=O)CCN1CCC(=C2c3cc(CC(=O)O)ccc3OCc3ccsc32)CC1 [Compound 192] with its measured ID50 (mg/kg)/ ED50 (mg/kg).
result: 204.5

query: Annotate the compound CN1CCC(=C2c3ccccc3CCc3sc(C(=O)O)cc32)CC1.Cl [Compound 4] with its measured ID50 (mg/kg)/ ED50 (mg/kg).
result: 62.5

// each listed compound needs a value for ID50 (mg/kg)/ ED50 (mg/kg)
1. CCOC(=O)Cc1ccc2c(c1)C(=C1CCN(C)CC1)c1sccc1CO2.Cl [Compound 140]
2. CN1CCC(=C2c3ccccc3CCc3sc(CNC(N)=O)cc32)CC1 [Compound 49]
3. CCN1CCC(=C2c3cc(CCCC(=O)O)ccc3OCc3ccsc32)CC1 [Compound 142]
4. CN1CCC(=C2c3ccccc3OCc3cc(CC(=O)O)sc32)CC1.Cl [Compound 58]

result:
1: 350.0; 2: 33.9; 3: 39.7; 4: 263.1

Where do the numbers come from? From patent US8377967B2.
